In this section we review reported IC50 values for a set of compounds.
biological target: SIK2 (QIK) (SEQ ID NO: 11) (Homo sapiens, UniProt Q9H0K1); assay: SIK2 kinase assay (radiometric, 10 μM ATP); type: biochemical; conditions: read-out: SIK2 (QIK) (SEQ ID NO: 11) kinase inhibition result
Sequence (Q9H0K1 whole entry): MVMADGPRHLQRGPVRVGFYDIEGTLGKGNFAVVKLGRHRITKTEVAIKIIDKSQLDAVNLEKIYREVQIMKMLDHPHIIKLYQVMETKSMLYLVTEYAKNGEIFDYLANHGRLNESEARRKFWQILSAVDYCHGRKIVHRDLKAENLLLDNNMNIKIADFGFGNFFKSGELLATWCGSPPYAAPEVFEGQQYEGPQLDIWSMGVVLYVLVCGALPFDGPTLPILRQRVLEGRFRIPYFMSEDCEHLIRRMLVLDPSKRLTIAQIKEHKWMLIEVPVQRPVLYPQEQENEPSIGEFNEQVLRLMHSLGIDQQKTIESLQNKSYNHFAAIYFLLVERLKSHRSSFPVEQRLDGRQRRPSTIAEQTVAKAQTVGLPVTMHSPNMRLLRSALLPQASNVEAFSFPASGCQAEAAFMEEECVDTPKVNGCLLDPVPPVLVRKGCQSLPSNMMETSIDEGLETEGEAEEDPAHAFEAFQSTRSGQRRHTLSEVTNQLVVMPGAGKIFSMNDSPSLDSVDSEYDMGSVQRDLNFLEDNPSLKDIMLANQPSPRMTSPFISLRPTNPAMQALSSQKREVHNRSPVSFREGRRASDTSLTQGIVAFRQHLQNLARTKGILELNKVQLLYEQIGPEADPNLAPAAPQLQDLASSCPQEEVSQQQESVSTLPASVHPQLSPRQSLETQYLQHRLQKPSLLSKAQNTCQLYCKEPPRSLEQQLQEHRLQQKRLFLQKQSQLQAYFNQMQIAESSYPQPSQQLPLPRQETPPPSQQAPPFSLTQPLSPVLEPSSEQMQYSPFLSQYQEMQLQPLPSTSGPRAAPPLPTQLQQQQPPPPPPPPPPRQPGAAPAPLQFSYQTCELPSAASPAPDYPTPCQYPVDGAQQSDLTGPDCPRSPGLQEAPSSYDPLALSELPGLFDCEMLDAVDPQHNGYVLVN

>>> print(df.to_string())
                              smiles_record  test_readout  reported_result
0  FC1(F)Oc2ccc(-c3c[nH]c4ncc(-c5cnc(N6CCOCC6)s5)cc34)cc2O1          IC50        > 1000 nM
1  COc1c(F)cc(F)cc1-c1c[nH]c2ncc(-c3cnn(C4CCN(C)CC4)c3)cc12          IC50         < 100 nM
2  COc1c(F)cc(F)cc1-c1c[nH]c2ncc(-c3cccc(S(=O)(=O)N4CCCC4)c3)cc12          IC50         < 100 nM
3  COc1ccc(-c2n[nH]c3nccc(-c4ccsc4)c23)c(OC)c1          IC50         > 100 nM
4     COc1ccccc1-c1ccnc2[nH]cc(-c3ccsc3)c12          IC50        > 1000 nM

Then this compound:
Q) Query (compound): CCCS(=O)(=O)N1CCC(n2cc(-c3cnc4[nH]cc(-c5cc(F)cc(F)c5OC)c4c3)cn2)CC1 ; field requested: IC50
A) > 100 nM

Entry source: patent US9890153B2
